- Test system: OVCAR-5
- assay-overview: NCI tumour cell line growth inhibition, 48 h
Activity calls are given as the source filed them. Cut-off read from the data, not from the text of the source: active = GI50 up to about 1.1 µM and inactive = higher. Residues, ends and D or L forms follow the SMILES beside them. *: point of attachment. Bn = c1ccc(C*)cc1
assay-readout: GI50

>>> value_observed("CC(Br)CN(CC(C)Br)c1ccc2c(c1)Cc1ccccc1-2 (centres undefined)")
"18.9 µM (inactive)"
>>> value_observed("COC(=O)C(CC(C)C)NC(=O)C(N)Cc1ccc(OCc2ccccc2)cc1 (centres undefined) (H-Tyr(Bn)-Leu-OMe; configuration not given here)")
"> 10 µM (inactive)"
>>> value_observed("CC(=O)O[C@@]12CO[C@@H]1C[C@H](O)[C@@]1(C)C(=O)[C@H](O)C3=C(C)[C@@H](OC(=O)[C@H](O)[C@@H](NC(=O)OC(C)(C)C)c4ccccc4)C[C@@](O)([C@@H](OC(=O)c4ccccc4)[C@H]21)C3(C)C [DOCETAXEL]")
"< 0.01 µM (active)"
>>> value_observed("O=C(NNc1cn[nH]c(=O)c1Cl)/C(=C/c1ccc2c(c1)OCO2)NC(=O)c1ccccc1")
"> 100 µM (inactive)"
>>> value_observed("CCN(CC)CC(C)(C)C(=O)/C=C/c1ccc(/C=C/C(=O)C(C)(C)CN(CC)CC)cc1")
"1.54 µM (inactive)"
>>> value_observed("OC1CN(OC/C=C/c2ccccc2)CC(O)C1O (centres undefined)")
"> 100 µM (inactive)"

Each molecule below has a reported value. Please supply its GI50.
1. OC1[C@H]([C@H]2CCCC[C@@H]2O)CCC[C@@H]1[C@@H]1CCCC[C@H]1O (some centres undefined)
2. N#Cc1ccc2oc3ccc(C#N)cc3c(=O)c2c1
3. CCc1ccccc1NC(=O)C1=C(C)NC(C)=C(C(=O)Nc2ccccc2CC)C1c1cccc([N+](=O)[O-])c1

Reply:
1. > 100 µM (inactive)
2. 19.7 µM (inactive)
3. 41.5 µM (inactive)

###

- Tested on: HL-60
- assay-overview: NCI tumour cell line growth inhibition, 48 h
Where a name gives a salt, the structure may show the parent alone. Activity calls are given as the source filed them. Cut-off read from the data, not from the text of the source: active = GI50 up to about 1.1 µM and inactive = higher.
For each entry below, report its GI50 value.

>>> value_observed("C=C(C)[C@@H](C(=O)OC)N1C(=O)c2ccccc2C1=O")
"> 100 µM (inactive)"
>>> value_observed("[O-][S+](c1ccc(O)cc1)c1ccc(O)cc1")
"> 100 µM (inactive)"
>>> value_observed("N=c1oc2ccc3ccccc3c2cc1-c1nc(O)c2ccccc2n1")
"8.73 µM (inactive)"
>>> value_observed("Brc1cc2nn(-c3ccccc3)nc2c2nonc12")
"> 100 µM (inactive)"
>>> value_observed("Cc1cc(C)n2c(-c3ccccc3)c(C)cc2n1")
"5.68 µM (inactive)"
>>> value_observed("CN1CCC(O)(OC(=O)C(c2ccccc2)C2(O)CCCC2)CC1 (stereo unspecified)")
"> 100 µM (inactive)"

Each molecule below has a reported value. Please supply its GI50.
1. CC(=O)c1ccc(Nc2nc3ccccc3c3occc23)cc1
2. CS(=O)(=O)C1(Br)S(=O)(=O)OCCOS1(=O)=O
3. CCCc1cn2c(/C=N/NC(=N)N)c(-c3ccc(Cl)c([N+](=O)[O-])c3)nc2s1
4. CCSc1nnc(Sc2c3ccccc3nc3ccccc23)s1
5. CN[C@@H]1[C@H](O)[C@H](NC)[C@H]2O[C@@]3(O)C(=O)C[C@@H](C)O[C@H]3O[C@@H]2[C@H]1O [SPECTINOMYCIN SULFATE]

Reply:
1. 0.036 µM (active)
2. > 100 µM (inactive)
3. 1.2 µM (inactive)
4. 0.692 µM (active)
5. > 100 µM (inactive)
